System: HCT-15 colon
Experiment: NCI-60 one-dose screen, 48 h (100 = growth as untreated, 0 = no growth, -100 = all killed)
Details: 10 µM unless noted
The panel holds about 83,000 compounds, 20% with a hit somewhere; the sample as a whole holds those more often.
Catalogue of compounds with associated growth
Form entry: value (%) — number only.

Some solved cases for reference:
{"columns": ["compound", "units", "growth"],
 "data": [
  ["O=C(NCCOCCOCCNc1cccc2c1C(=O)N(C1CCCNC1=O)C2=O)c1cc2c(o1)C(=O)c1ccccc1C2=O (stereo not given)", "%", -65.3],
  ["CCNCCNc1cc(-c2ccc(F)cc2)c(C#N)c2nc3ccccc3n12", "%", 23.8]
]}

Reported growth of Cc1nc(Nc2ccc(S(=O)(=O)Nc3cc(C)on3)cc2)c2ccccc2n1 : 99.1

Reported growth of COc1ccc(C2CC(c3ccccc3)=NN2c2nc(C)c(C(C)=O)s2)cc1 (stereo not given) : 98.7

Reported growth of Cc1nc(C)c(-c2nn3c(-c4cccc(F)c4)nnc3s2)s1 : 101

Reported growth of CCOC(=O)c1nnn(-c2ccccc2)c1C1=CN(C)CCC1 : 99

----------
Catalogue of compounds with associated growth
Test system: SF-295 CNS
Experiment: NCI-60 one-dose screen, 48 h (100 = growth as untreated, 0 = no growth, -100 = all killed)
Settings: 10 µM unless noted
This is part of a sample that, as a whole, favours compounds with a hit. Of some 83,000 tested, about 20% had one in any assay. Calls of active or inactive are those of the source. How the source made its calls: active means growth percent below 10; inactive means the rest.

Some solved cases for reference:
{"columns": ["compound", "test.value"],
 "data": [
  ["CCCN1CCN(c2ccc3nc(-c4ccc5nc(-c6cc(OC)c(OC)c(OC)c6)[nH]c5c4)[nH]c3c2)CC1", "65.9% (inactive)"],
  ["C=C1C(=O)O[C@H]2[C@H]1CC/C(COC(=O)NCc1ccc(Cn3c(=O)sn(CCCCl)c3=O)cc1)=C\\CC[C@@]1(C)O[C@@H]21", "101% (inactive)"],
  ["CN(C)c1cnccn1", "122% (inactive)"],
  ["CN1CCN(C2=C(Cl)C(=O)c3ccccc3C2=O)CC1", "84.1% (inactive)"],
  ["Nc1c(-c2nc3ccccc3c(=O)[nH]2)nnn1-c1ccc(Cl)cc1", "73.6% (inactive)"],
  ["CC(C)c1ccc(NC(=O)Cc2ccc(Nc3ncnc4cc(-c5cnn(CCN(C)C)c5)ccc34)cc2)cc1", "-61.9% [30 µM] (active)"],
  ["O=C(NC(=S)Nc1ccc(-c2nc3ccccc3[nH]2)cc1)c1ccc2ccccc2c1", "19.7% (inactive)"],
  ["CNC(=O)c1cc(Oc2ccc3nc(NC(=O)Nc4cc(C(F)(F)F)cc(C(F)(F)F)c4)sc3c2)ccn1", "-81.9% (active)"],
  ["O=C(/C=C/C12c3ccccc3C(c3ccccc31)C1C(=O)N(c3ccccc3)C(=O)C12)c1ccc(Cl)cc1 (stereo not given)", "6.27% (active)"],
  ["NC(N)=N/N=C/c1ccc(Br)cc1", "48.3% (inactive)"]
]}

Turning now to a further compound:
Reported growth of CN(C)CCCCNc1ccc(NCCCCN(C)C)c2c1C(=O)c1c(O)ccc(O)c1C2=O : -81.5% (active)

----------
Test system: CCRF-CEM leukemia
Assay: NCI-60 one-dose screen, 48 h (100 = growth as untreated, 0 = no growth, -100 = all killed)
Conditions: 10 µM unless noted
Compounds without any hit were thinned out: in the full panel of roughly 83,000, 20% have a hit. Calls of active or inactive are those of the source. Rule for the calls: active = growth percent below 10; inactive = the rest.
property.label: growth

{"columns": ["smiles.str", "test.value"],
 "data": [
  ["CCCCCCCCn1cc(C2=C(c3coc4ccc(OC)cc34)C(=O)NC2=O)c2ccccc21", "99% (inactive)"],
  ["CCn1nc(C#Cc2c(C)ccc3c(Nc4ccc(Cl)cc4)nccc23)c2c(N)ncnc21", "10.5% (inactive)"],
  ["COc1ccc(Oc2nc(Nc3ccc(N4CCOCC4)nc3)ncc2NC(=O)c2cc(OC)cc(OC)c2)cc1", "64.2% (inactive)"],
  ["CCCCCCCSc1ccc(C(=O)O)cc1", "91.5% (inactive)"]
]}

Reported growth of Cc1nc(Nc2ccc(NC(=S)Nc3ccccc3)cc2)c2ccccc2n1 : 93.1% (inactive)
